Readings of pKd for the listed binders
Target: T1, human CD73 (huCD73) protein, antigen of the Biacore assay (human, UniProt P21589 27-547, limits assumed)
T1 construct: also called human CD73 antigen
T1 sequence (looked up): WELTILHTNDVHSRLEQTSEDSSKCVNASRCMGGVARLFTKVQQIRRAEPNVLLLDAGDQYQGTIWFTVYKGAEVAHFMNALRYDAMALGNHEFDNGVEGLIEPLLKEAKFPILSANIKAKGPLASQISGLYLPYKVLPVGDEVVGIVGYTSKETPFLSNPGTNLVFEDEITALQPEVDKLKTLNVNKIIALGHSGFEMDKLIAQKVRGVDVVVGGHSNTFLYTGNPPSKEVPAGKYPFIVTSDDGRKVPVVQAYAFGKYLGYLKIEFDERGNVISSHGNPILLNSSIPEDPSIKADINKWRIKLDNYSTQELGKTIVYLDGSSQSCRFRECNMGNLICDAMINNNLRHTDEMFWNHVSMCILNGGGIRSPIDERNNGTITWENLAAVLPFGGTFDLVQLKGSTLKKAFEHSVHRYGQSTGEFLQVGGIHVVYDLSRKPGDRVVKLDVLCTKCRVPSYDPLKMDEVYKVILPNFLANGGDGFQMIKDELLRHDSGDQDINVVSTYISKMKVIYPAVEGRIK
Assay: SPR Biacore T200; antibody captured on Protein A chip, CD73 in flow; 1:1 Langmuir
In plain terms, pKd is the concentration in mol/L turned into minus its base-10 logarithm.

The examples below pair each entry with its known result.
Hab127.31 (antibody, V domains shown, VL3 + VH1; recombined with human heavy and light constant regions) VH: EVQLVQSGAEVKKPGASVKVSCKASGYTFTAYFMNWVRQAPGQGLEWMGRIYHNNGDTFYSQKFKGRVTMTVDKSTSTVYMELSSLRSEDTAVYYCATSYVGDWGQGTTVTVSS VL: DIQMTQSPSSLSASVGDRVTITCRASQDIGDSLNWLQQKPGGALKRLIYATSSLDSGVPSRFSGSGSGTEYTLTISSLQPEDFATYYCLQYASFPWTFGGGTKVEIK
9.59
Hab127.31b (antibody, V domains shown, VL3 + VH1b, HCDR2 hot-spot variant; full-length antibody) VH: EVQLVQSGAEVKKPGASVKVSCKASGYTFTAYFMNWVRQAPGQGLEWMGRIYHNLGDTFYSQKFKGRVTMTVDKSTSTVYMELSSLRSEDTAVYYCATSYVGDWGQGTTVTVSS VL: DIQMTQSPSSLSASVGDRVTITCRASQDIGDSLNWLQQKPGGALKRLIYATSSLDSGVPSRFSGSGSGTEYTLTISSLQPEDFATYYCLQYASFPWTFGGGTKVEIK
9.69
Hab127.31a (antibody, V domains shown, VL3 + VH1a, HCDR2 hot-spot variant; full-length antibody) VH: EVQLVQSGAEVKKPGASVKVSCKASGYTFTAYFMNWVRQAPGQGLEWMGRIYHNQGDTFYSQKFKGRVTMTVDKSTSTVYMELSSLRSEDTAVYYCATSYVGDWGQGTTVTVSS VL: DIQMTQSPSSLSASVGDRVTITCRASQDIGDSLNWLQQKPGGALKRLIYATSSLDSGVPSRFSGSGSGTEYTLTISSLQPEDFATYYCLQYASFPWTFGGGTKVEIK
9.66

GET /value?item= Hab108.53 (antibody, V domains shown, VL5 + VH3; full-length antibody) VH: EVTLKESGPVLVKPTETLTLTCTVSGFSLSSYGIQWVRQPPGKLLEWLGVIWSGGSADYNAAFISRLTISKDTSKSQVVLTMTNMDPVDTATYYCAGQYGSVWGQGTLVTVSS VL: DIQMTQSPSSLSASVGDRVTITCRASQDIGDRLNWLQQKPGKAIKRLIYATSSLDSGVPKRFSGSGSGTEYTLTISSLQPEDFATYYCLQYAGSWTFGGGTKVEIK &field=pKd returns 9.22

pKd reported for this binder CH127 (antibody, V domains shown, also called chimeric antibody of mab127) VH: EVQLQQSGPELVKPGESVKISCKASGYSFTAYFMNWVMQSHRKSLEWIGRIYHNNGDTFYSQKFKGKATLTVDKSSNTVHMELRSLTSEDSAVYFCATSYVGDWGQGTTLTVSS VL: DIQMTQSPSSLSASLGERVSLTCRASQDIGDSLNWLQQAPDGTLKRLIYATSSLDSGVPRRFSGSRSGSDYSLTISSLESEDFVDYYCLQYASFPWTFGGGTKLEIK : 9.86
